# systemName: Probable nicotinate-nucleotide adenylyltransferase (Staphylococcus aureus (strain N315), UniProt P65502);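 note: confirmatory retest of primary uHTS inhibitor hits against NadD over a range of doses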
# Sequence (P65502 whole entry): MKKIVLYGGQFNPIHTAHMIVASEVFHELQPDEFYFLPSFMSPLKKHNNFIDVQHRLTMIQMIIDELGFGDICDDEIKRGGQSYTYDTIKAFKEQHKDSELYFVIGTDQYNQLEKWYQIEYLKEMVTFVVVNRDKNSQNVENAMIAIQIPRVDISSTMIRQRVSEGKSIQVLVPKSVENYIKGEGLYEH
# Type: functional, Staphylococcus aureus subsp. aureus N315
Activity calls are given as the source filed them.
Would you mind telling me the reported IC50 of each entry?

*Q* I'd like to know its IC50. The molecule in question is COc1ccc(Oc2c(OC)cc(NCc3ccc(CN)cc3)c3ncccc23)cc1
*A* 7.55 µM (active)

*Q* Which IC50 value belongs to COc1ccc(NS(=O)(=O)c2ccc(NC(=S)NC(=O)/C=C/c3ccc(C)cc3)cc2)nn1 ?
*A* 5.17 µM (active)

*Q* Param item = C#CCN(C[C@H]1[C@H](OC(=O)Nc2cccs2)[C@H](OC(=O)Nc2cccs2)C[C@H]2C(=O)N(c3ccccc3)C(=O)[C@@H]12)S(=O)(=O)c1ccc(C)cc1 ; retrieve measured IC50.
*A* 19.9 µM (active)

*Q* Given the entry CC(C)Cn1c(=O)c(C(=O)Nc2ccccc2S(N)(=O)=O)c(O)c2ccccc21 , report its measured IC50.
*A* 8.62 µM (active)

----------
# systemName: Heat shock protein HSP 90-alpha (Homo sapiens)
# Assay type: functional, organism-based
The source made the active and inactive calls.
parameter: AC50

*Q* I'd like to know its AC50. The molecule in question is CCCOc1ccc(N2C(=O)CC(N3CCC(C(=O)OCC)CC3)C2=O)cc1 (stereo unspecified)
*A* 3.1 µM (active)

*Q* Which AC50 reading was recorded for the molecule Cc1onc(-c2ccccc2)c1C(=O)NC(=S)NNC(=O)c1ccccc1O ?
*A* 2.92 µM (active)

*Q* Using the record for COc1ccccc1C(=O)NNC(=S)NC(=O)c1ccco1 , report its AC50.
*A* 1.42 µM (active)

*Q* Look at this molecule and give its reported AC50. Cc1nnc(N=c2ssnc2Cl)o1
*A* 3.13 µM (active)

*Q* Given the molecule Oc1c(CN2CCN(c3ccc(F)cc3)CC2)cc(Cl)c2cccnc12 , what is its reported AC50?
*A* 7.92 µM (active)

*Q* State the recorded AC50 for this entry: C[C@@]12C(=O)Nc3ccc(Cl)cc3C(=O)N1[C@H]1c3ccccc3OC[C@@H]1[C@@H]2c1ccccc1
*A* 0.611 µM (active)

*Q* Returns the measured AC50 for the input molecule. Input: CCCCC(=O)NC(c1ccc(C(C)C)cc1)c1ccc2cccnc2c1O (stereo unspecified)
*A* 5.41 µM (active)

*Q* Find the recorded AC50 belonging to O=C(N/N=C/c1ccc([N+](=O)[O-])o1)c1sc2ccccc2c1Cl and report it.
*A* 4.4 µM (active)

*Q* Recorded AC50 of Cc1ccccc1CS(=O)(=O)c1ncc(Cl)c(C(=O)Nc2ccc(F)cc2)n1 , please.
*A* 2.41 µM (active)

*Q* What value of AC50 has been recorded for this entry: Cc1cc(-c2nnc(S)n2/N=C/C(Br)=C/c2ccccc2)[nH]n1
*A* 10.4 µM (active)

*Q* Give its AC50 value. Item: CCN1/C(=C/c2ccc3cc(C)ccc3[n+]2CC)Sc2cc(C)ccc21
*A* 3.75 µM (active)

----------
Kindly state AC50 for each of the entries shown.

*Q* Please tell me: AC50 of O=C1NCC2=C1C(c1ccc(Br)cc1)Nc1ccccc1N2 (stereo unspecified) , system Cytochrome P450 2D6 (Homo sapiens)?
*A* 2.24 µM (inconclusive)

*Q* Given the entry C[N+]1(NCC[N@@+]2(C)CCc3ccccc3C2)CCCCC1 , what AC50 was observed with Cytochrome P450 2D6 (Homo sapiens)?
*A* 1.58 µM (inconclusive)

*Q* Find AC50 (Cytochrome P450 2D6 (Homo sapiens)) for the entry COc1ccc2cc(C#N)c(SCC(=O)NNC(=O)Cc3ccccc3)nc2c1
*A* 2.51 µM (inconclusive)

*Q* API: value(readout=AC50, system=Cytochrome P450 2D6 (Homo sapiens)) for record CCN(CCCl)Cc1ccccc1Br
*A* 12.6 µM (inconclusive)

*Q* Give the reported AC50 for O=C(N[C@@H](Cc1ccccc1)C(=O)CCl)OCc1ccccc1 (system: Cytochrome P450 2D6 (Homo sapiens)).
Sequence (P10635 whole entry): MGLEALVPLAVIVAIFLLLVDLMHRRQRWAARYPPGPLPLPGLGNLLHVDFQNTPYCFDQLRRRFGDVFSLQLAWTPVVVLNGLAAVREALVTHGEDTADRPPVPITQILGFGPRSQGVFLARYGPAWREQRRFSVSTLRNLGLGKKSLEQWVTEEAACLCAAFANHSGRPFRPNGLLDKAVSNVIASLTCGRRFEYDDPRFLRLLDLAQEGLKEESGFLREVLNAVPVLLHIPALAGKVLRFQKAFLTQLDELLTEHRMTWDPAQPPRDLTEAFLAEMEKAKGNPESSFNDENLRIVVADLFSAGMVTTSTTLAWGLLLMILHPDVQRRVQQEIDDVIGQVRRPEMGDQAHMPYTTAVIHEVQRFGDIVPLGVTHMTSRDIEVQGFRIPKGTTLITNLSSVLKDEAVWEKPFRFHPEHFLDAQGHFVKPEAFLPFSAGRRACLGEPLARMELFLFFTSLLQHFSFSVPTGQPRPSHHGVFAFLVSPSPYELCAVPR
*A* 39.8 µM (inconclusive)

*Q* Give AC50 (Cytochrome P450 2D6 (Homo sapiens)) of the following compound: C=CCNC(=O)/C(=C\C=C\c1ccccc1)NC(=O)c1ccc(OCCCC)cc1
*A* 4.47 µM (inconclusive)

*Q* Which AC50 is reported with Cytochrome P450 2D6 (Homo sapiens) for this entry: COc1cc(OC)cc(C(=O)NC(=S)NCCc2ccccc2)c1 ?
*A* 10 µM (inconclusive)

*Q* So what AC50 did COc1ccc(NC(=O)CSc2nc(C)c3c(c2C#N)CCCC3)cc1 get with Cytochrome P450 2D6 (Homo sapiens)?
*A* 2.24 µM (inconclusive)

*Q* Checklist item: AC50 tested on Cytochrome P450 2D6 (Homo sapiens), entry O=C(c1ccco1)N1CCC2(CC1)CCN(c1ccccc1)CC2 , value?
*A* 25.1 µM (inconclusive)

*Q* // fetch Cytochrome P450 2D6 (Homo sapiens) AC50 for C[N+]1(C)CCc2cc3c(cc2[C@@H]1[C@@H]1OC(=O)c2c1ccc1c2OCO1)OCO3
*A* 31.6 µM (inconclusive)

*Q* Field: AC50 (Cytochrome P450 2D6 (Homo sapiens)). Entry: Cc1noc(C)c1-c1ccc2ncnc(N(C)Cc3ccco3)c2c1
*A* 20 µM (inconclusive)

*Q* Hello, I am looking for reported AC50 with Cytochrome P450 2D6 (Homo sapiens) for COc1ccccc1-c1cncnc1NCc1cccnc1 . Could you help?
*A* 39.8 µM (inconclusive)

*Q* Value wanted: AC50 (Cytochrome P450 2D6 (Homo sapiens)) of entry CN/C(=N/C#N)NCCSC[C@H]1N=CN=C1C
*A* 10 µM (inconclusive)

*Q* Checklist item: AC50 tested on Cytochrome P450 2D6 (Homo sapiens), entry CCCC[C@@H]1C[C@H]1C(NC(=O)c1ccco1)c1ccc(C(=O)OC)cc1 (stereo partly specified) , value?
*A* 25.1 µM (inconclusive)

*Q* Query for Cytochrome P450 2D6 (Homo sapiens): what AC50 does the record show for CC(=O)Nc1c(S(=O)(=O)c2ccccc2)c2nc3ccccc3nc2n1Cc1ccccc1 ?
*A* 25.1 µM (inconclusive)

*Q* For the record CCn1c(SCc2cccc(C)c2)nnc1-c1ccccc1 , what value of AC50 is listed for Cytochrome P450 2D6 (Homo sapiens)?
*A* 15.8 µM (inconclusive)

*Q* Kindly state the measured AC50 obtained for O=C(c1cccc(F)c1)N1CCC[C@@]2(CCN(C(c3ccccc3)c3ccccc3)C2)C1 with Cytochrome P450 2D6 (Homo sapiens).
*A* 12.6 µM (inconclusive)

*Q* Request: AC50, test system Cytochrome P450 2D6 (Homo sapiens), entry CCC1(C)CC(CCNS(=O)(=O)c2ccc(C)cc2)(c2ccc(C)cc2)CCO1 (stereo unspecified)
*A* 28.2 µM (inconclusive)

*Q* For the record CCOC(=O)C1=C(C)N=C2SC(C(=O)OC)=CC(=O)N2C1c1ccc(F)cc1 (stereo unspecified) , what value of AC50 is listed for Cytochrome P450 2D6 (Homo sapiens)?
*A* 12.6 µM (inconclusive)

*Q* # returns recorded AC50 (system: Cytochrome P450 2D6 (Homo sapiens)) for CN(Cc1ccco1)c1ncncc1-c1ccccc1C(F)(F)F
*A* 20 µM (inconclusive)

*Q* // fetch Cytochrome P450 2D6 (Homo sapiens) AC50 for O=C(C1CCC(=O)N1Cc1ccccc1Cl)N1CCN(c2ccc(F)cc2)CC1 (stereo unspecified)
*A* 15.8 µM (inconclusive)

*Q* Field: AC50 (Cytochrome P450 2D6 (Homo sapiens)). Entry: Cc1ccc(C(=O)C2=C(O)C(=O)N(CCCn3ccnc3)C2c2ccc(OC(C)C)cc2)o1 (stereo unspecified)
*A* 12.6 µM (inconclusive)

*Q* AC50 of Clc1cccc(Nc2ncnc3ccc(Br)cc23)c1 on Cytochrome P450 2D6 (Homo sapiens)?
*A* 31.6 µM (inconclusive)

*Q* Give the reported AC50 for CCCN1CC=C2C(C#N)=C(N)C(C#N)(C#N)C(c3cc(OC)ccc3OC)C2C1 (stereo unspecified) (system: Cytochrome P450 2D6 (Homo sapiens)).
*A* 15.8 µM (inconclusive)

*Q* I'm curious: which AC50 was measured for C#CCCCCCCCCCCCCCCCC(=O)O tested on Cytochrome P450 2D6 (Homo sapiens)?;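 note: CYP2D6 member of a cytochrome P450 panel assay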
*A* 20 µM (inconclusive)

*Q* Value wanted: AC50 (Cytochrome P450 2D6 (Homo sapiens)) of entry Cc1ccc(S(=O)(=O)N[C@@H](CCCCN)C(=O)CCl)cc1
*A* 25.1 µM (inconclusive)
